tested on: LOX IMVI; assay: NCI tumour cell line growth inhibition, 48 h
Calls of active or inactive are those of the source. Rule as the data show it: active = GI50 up to about 1.1 µM and inactive = higher.
# maps each entry to its GI50

Worked set:
COc1cc(/C=C2\C(=O)N(c3cccc(Cl)c3)C(c3ccccc3)S2(=O)=O)cc(OC)c1OC (stereo not given)
22.2 µM (inactive)
Cc1cc(C)nc(NCCC(O)(P(=O)(O)O)P(=O)(O)O)n1
> 100 µM (inactive)
CCCCCCCCCCCCCCCCOC[C@@H](COC(c1ccccc1)(c1ccccc1)c1ccccc1)O[PH](=S)OC (stereo not given in full)
2.98 µM (inactive)

Lab note: record GI50 of N=C(N)NS(=O)(=O)c1ccc(NC(=O)c2cccc3c(Nc4ccc(S(=O)(=O)N=C(N)N)cc4)c4ccc(Cl)cc4nc23)cc1 tested on LOX IMVI.
37.2 µM (inactive)

Report GI50 on LOX IMVI for this entry: c1cncc(CC2(c3cc4ccccc4[nH]3)OCCO2)c1
> 100 µM (inactive)
